- test-target: Human plasma kallikrein (Homo sapiens, UniProt P03952)
- Construct: yields a heavy chain (371 amino acids) and a light chain (248 amino acids)
- Sequence (P03952 391-638 limits assumed): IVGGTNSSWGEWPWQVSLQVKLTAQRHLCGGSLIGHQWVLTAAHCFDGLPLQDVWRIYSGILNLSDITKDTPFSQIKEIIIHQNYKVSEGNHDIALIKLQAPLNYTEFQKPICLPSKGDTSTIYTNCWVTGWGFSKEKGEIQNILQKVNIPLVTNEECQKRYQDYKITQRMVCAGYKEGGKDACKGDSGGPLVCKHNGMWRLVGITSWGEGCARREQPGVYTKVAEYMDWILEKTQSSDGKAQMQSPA
- Sequence (P03952 20-390 partner limits assumed): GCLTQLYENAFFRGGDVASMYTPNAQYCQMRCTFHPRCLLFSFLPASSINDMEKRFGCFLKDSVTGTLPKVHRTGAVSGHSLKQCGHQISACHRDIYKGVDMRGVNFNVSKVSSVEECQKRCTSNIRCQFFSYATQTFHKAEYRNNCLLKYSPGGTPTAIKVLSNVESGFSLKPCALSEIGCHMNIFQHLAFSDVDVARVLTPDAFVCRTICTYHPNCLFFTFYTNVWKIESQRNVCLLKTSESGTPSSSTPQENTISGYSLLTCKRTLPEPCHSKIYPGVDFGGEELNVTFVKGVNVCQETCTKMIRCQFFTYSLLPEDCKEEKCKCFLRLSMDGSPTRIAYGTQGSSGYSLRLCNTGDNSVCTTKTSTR
- assay-procedure: Plasma Kallikrein Assay
- measurement-conditions: purified Human plasma kallikrein 0.5 nM, substrate Acetyl-K-P-R-AFC, HEPES pH 7.4, fluorescence 405 Ex/510 Em; read-out: PKal IC50
- Method: The effectiveness of a compound of the present invention as an inhibitor of plasma kallikrein can be determined using a relevant purified serine protease, and an appropriate synthetic substrate. The rate of hydrolysis of the chromogenic or fluorogenic substrate by the relevant serine protease was measured both in the absence and presence of compounds of the present invention. […] A decrease in the rate of fluorescence change in the presence of inhibitor is indicative of enzyme inhibition. […]
measure-name: pIC50
Answer as the number alone; pIC50 is minus log10 of concentration in mol/L.

What value of pIC50 has been reported for the following compound? Cn1ncc(-c2cc(N)n(CC(=O)N3CC[C@@]4(C3)OC(=O)Nc3ccc(Cl)c(F)c34)n2)c1C(F)(F)F
8.85

What do we get for Nc1cc(C2CC2)nn1CC(=O)N1CCC[C@@]2(C1)OC(=O)Nc1ccc(Cl)c(F)c12 ?
7.78

What do we get for N#Cc1cccc(-c2cc(N)n(CC(=O)N3CC[C@@]4(C3)OC(=O)Nc3ccc(Cl)c(F)c34)n2)c1 ?
7.92

What do we get for CC1(C)CCc2c1nn(CC(=O)N1CC[C@@]3(C1)OC(=O)Nc1ccc(Cl)c(F)c13)c2N ?
7.39

What do we get for Nc1cc(-c2cncc(Br)c2)nn1CC(=O)N1CC[C@@]2(C1)OC(=O)Nc1ccc(Cl)c(F)c12 ?
7.95

What do we get for Nc1cc(-c2ccc(Cl)cc2)nn1CC(=O)N1CC[C@@]2(C1)OC(=O)Nc1ccc(Cl)c(F)c12 ?
7.66

What do we get for Nc1cc(-c2ccc(F)cc2F)nn1CC(=O)N1CC[C@@]2(C1)OC(=O)Nc1ccc(Cl)c(F)c12 ?
8.30

What do we get for Nc1c2c(nn1CC(=O)N1CC[C@@]3(C1)OC(=O)Nc1ccc(Cl)c(F)c13)-c1ccccc1C2 ?
8.48

What do we get for Nc1cc(-c2ccccc2I)nn1CC(=O)N1CC[C@@]2(C1)OC(=O)Nc1ccc(Cl)c(F)c12 ?
8.24

What do we get for Nc1cc(-c2nccs2)nn1CC(=O)N1CC[C@@]2(C1)OC(=O)Nc1ccc(Cl)c(F)c12 ?
7.74

What do we get for Nc1cc(-c2cc3ccccc3o2)nn1CC(=O)N1CC[C@@]2(C1)OC(=O)Nc1ccc(Cl)c(F)c12 ?
8.11

What do we get for Nc1cc(-c2cccc(C(F)(F)F)c2)nn1CC(=O)N1CC[C@@]2(C1)OC(=O)Nc1ccc(Cl)c(F)c12 ?
7.43

What do we get for Nc1c(Cl)c(-c2ncccc2F)nn1CC(=O)N1CCC[C@@]2(C1)OC(=O)Nc1ccc(Cl)c(F)c12 ?
8.05

What do we get for Nc1cc(-c2ccc(OC(F)F)cc2)nn1CC(=O)N1CC[C@@]2(C1)OC(=O)Nc1ccc(Cl)c(F)c12 ?
7.99

What do we get for Nc1cc(-c2ccc(OC(F)(F)F)cc2)nn1CC(=O)N1CC[C@@]2(C1)OC(=O)Nc1ccc(Cl)c(F)c12 ?
7.31

What do we get for Nc1c(Cl)c(-c2ccccc2)nn1CC(=O)N1CC[C@@]2(C1)OC(=O)Nc1ccc(Cl)c(F)c12 ?
7.37
